procedure details: folding stability dG unfold from trypsin proteolysis; higher = more stable

[
  {
    "sequence input": "SAGGSAGGSWITPEWIEEIARYLARELGIDDVKIEVERRPDGYVTVEIRNPANGRKVEITVPWSAGGSAGGS [r12_1000_TrROS]",
    "unit": "kcal/mol",
    "folding stability dG unfold": 3.38
  },
  {
    "sequence input": "SMKSKIEVKTVTFTFSPDDPLAKTPLEEIISEKAKKEGKKIEIPSYSYTSTDPAKGTKTYTFTVKIIKEESA [r9_107_JUSTAS]",
    "unit": "kcal/mol",
    "folding stability dG unfold": 0.122
  },
  {
    "sequence input": "SAGGSAGGSAGGMKLVTLPDGKTYPFTSLEEFKEALLKETGKPVDLKNPVIYPVPPGLSSAGGSAGGSAGGS [r10_62_JUSTAS]",
    "unit": "kcal/mol",
    "folding stability dG unfold": 0.401
  },
  {
    "sequence input": "SAGGSAGGSGLEILEEREAVFPLHGLVVKREVVVRSPDGVPLVFVEVEAHPELLPLVERLFERSAGGSAGGS [r12_457_TrMRF]",
    "unit": "kcal/mol",
    "folding stability dG unfold": 0.212
  },
  {
    "sequence input": "SRTIENPDNGIKITVDRVPGGRYRVHIFNPGGKPIHEREIPDMPIPPGDTREIKIPIKGLPPGMYLMLEPWS [r1_263_TrROS]",
    "unit": "kcal/mol",
    "folding stability dG unfold": 0.502
  },
  {
    "sequence input": "SAGKKVVIIEIEEVTNEDGEKEYKIRVLVKDEETGEVTEREITVKEGESIEDLIKKALEEGADEVIIVPSAG [r5_37_TrROS_Hall]",
    "unit": "kcal/mol",
    "folding stability dG unfold": 3.98
  },
  {
    "sequence input": "SAGGGEIKIEIYRHPDTIMIRVKWDNPQQLKEEIIELFREENGFKPKEVSVQYNPNGYLYIMFEFKPKSAGG [r13_158_TrROS]",
    "unit": "kcal/mol",
    "folding stability dG unfold": 2.59
  },
  {
    "sequence input": "SAGGSAGGSAGGMKTIVFTTLSPEEAQALADELKAKGVDVEVTYEPVPVTPRPLPLNRLSAGGSAGGSAGGS [r10_361_JUSTAS]",
    "unit": "kcal/mol",
    "folding stability dG unfold": 2.04
  },
  {
    "sequence input": "SAGGEKITIEVDGKKVTITKNEDGTITITIEHNGKVIKTITLPKNLEKITELTLTFNGKTYTITIEPSAGGS [r16_452_TrROS_Hall]",
    "unit": "kcal/mol",
    "folding stability dG unfold": 3.9
  },
  {
    "sequence input": "SAGGSAGGSAGGSPLVIKVDGPAEKLIEEIKKLFPNAKVLSIETHPDGGVTLVVEKIDESAGGSAGGSAGGS [r4_95_TrMRF]",
    "unit": "kcal/mol",
    "folding stability dG unfold": 1.38
  },
  {
    "sequence input": "SAGMMEIVEVKEVDGRLELKIKDKETGEEFTITVERKEDGELKVTIEMSDEAAERLRELFPEIDRLEIKSAG [r5_933_TrROS_Hall]",
    "unit": "kcal/mol",
    "folding stability dG unfold": 2.19
  },
  {
    "sequence input": "SAGMYTVLETRTVNGRTVTLIDVPERPLTVTVTVDRDPSGRRTVTVNVEGEVKEILEKANPDIDELTLESAG [r5_933_JUSTAS]",
    "unit": "kcal/mol",
    "folding stability dG unfold": 0.456
  },
  {
    "sequence input": "SAGGSAGGSAGDPVLTVTLLDDNHPVTLTYHPGEKTVTVSVYPLKSGKVLGTVTVPASELSAGGSAGGSAGG [r11_231_TrMRF]",
    "unit": "kcal/mol",
    "folding stability dG unfold": -1.45
  },
  {
    "sequence input": "SMKKTLTEKIEGVLPEEEAERYLEEYIASRPWAEKVEVKPEIKPIFDEKGNKLVKVKTTITVTISEEKLKSA [r9_1006_JUSTAS]",
    "unit": "kcal/mol",
    "folding stability dG unfold": -0.776
  }
]

====

procedure details: folding stability dG unfold from chymotrypsin proteolysis; higher = more stable

[
  {
    "sequence input": "SAGGSAGGSAGGKPKYKIVEIKYDKETKTVTLKIKLENGETVEITVPPGTSLEDILKALSAGGSAGGSAGGS [r10_984_TrROS_Hall]",
    "folding stability dG unfold, kcal/mol": 3.9
  },
  {
    "sequence input": "SAGMKAYIVSVEKNEDGTETIKLKVYFLDKNGKVVETKEITIKKGETIKITFPNGKTITVPAKDLKLVKSAG [r5_137_TrROS_Hall]",
    "folding stability dG unfold, kcal/mol": 3.7
  },
  {
    "sequence input": "SKGTFMAMMPLDEIKEIVENFAKQGWNIKIKPKSIQPFPFPHNDEDGEPEPYPMVMVEVEIKIVPPGDPPSA [r9_991_TrROS]",
    "folding stability dG unfold, kcal/mol": 1.89
  },
  {
    "sequence input": "SAGGMKVTVYPDGTVSVEIEPGQTLTVSLGDKEYTVTAEYPSITITTTPVPVPPPAVPPENVDPSLVSAGGS [r16_600_JUSTAS]",
    "folding stability dG unfold, kcal/mol": 0.984
  },
  {
    "sequence input": "SAGMLDVPDDAEITVLVSLEKVPLPGDSSERVLAGVVKLKVKTLPNGEQVIESAEIKIVSAEELKKAGLSAG [r5_340_TrMRF]",
    "folding stability dG unfold, kcal/mol": 1.6
  },
  {
    "sequence input": "SGKKKIKIYVESIEVFEDGVVKIKVKAIFPDGSEEDVIAEIRVEPDEDGRPHLLVVIRIGDKDFLLVLDASA [r9_271_TrMRF]",
    "folding stability dG unfold, kcal/mol": 3.15
  },
  {
    "sequence input": "SAGDTISIMIPPGMSGERAVNQIKYIAREQKENGKKRKITIWMPDPMRARFIKKALDEKGIPIEIEFWSAGG [r19_268_TrROS]",
    "folding stability dG unfold, kcal/mol": 0.766
  },
  {
    "sequence input": "SMKVTLDGKGSVTTMPAEQLEVLIKELKEKGYKVKILSEEPDPNSDTVNYTIEITPPKPEKEEFENEELKSA [r9_448_JUSTAS]",
    "folding stability dG unfold, kcal/mol": 1.94
  },
  {
    "sequence input": "SAGGSAGGSKIKPGEKVEIKLKIKVKDKNGKEKEIELTFSKDMTVEEIKKLLKELEKKGFEIESAGGSAGGS [r20_27_TrROS_Hall]",
    "folding stability dG unfold, kcal/mol": 3.23
  },
  {
    "sequence input": "SAGGSMEEEFAARGATVTIDPEKGVITVTFYEEVTQPDGTPVLRRKGTLTIEVPGNDPSQALAKALEESAGG [r13_924_JUSTAS]",
    "folding stability dG unfold, kcal/mol": 2.1
  },
  {
    "sequence input": "SAGGSAGGSAGGDNFEIEPDISWNPDYGYISIDWTVTIGGKEQPFTIMIPVRLPPPPEDDSAGGSAGGSAGG [r7_413_TrROS]",
    "folding stability dG unfold, kcal/mol": 0.712
  },
  {
    "sequence input": "SPKIKIVSVSRTAGGALVALLELEDRPITLYRPLALPYILASAEIPGTNEVKTILAPSSISPEEIAKLLGSA [r9_522_TrMRF]",
    "folding stability dG unfold, kcal/mol": 1.75
  },
  {
    "sequence input": "SAGGSMTLEELKNMTVEELRELLGEDAEVTVDEETGTITIRVPGKEVTIEVDEETGEVKIVEVKPVSAGGSA [r2_470_TrROS_Hall]",
    "folding stability dG unfold, kcal/mol": 2.27
  },
  {
    "sequence input": "SIYIMLPVPPGKPYKLSIEIEMPDNGRPYEYDGTFNPENGWVMFPVRFPDNGHPIPPEDFKVKVELEPPKSA [r9_928_TrROS]",
    "folding stability dG unfold, kcal/mol": 2.45
  },
  {
    "sequence input": "SAGGSAGGSAGEPEYVRVRIRVRRRVRNKETGKWEEKEVELTLVFPSKEEALKALEELGLSAGGSAGGSAGG [r11_984_TrROS_Hall]",
    "folding stability dG unfold, kcal/mol": 4.05
  },
  {
    "sequence input": "SAGGSAGGSAGGIAEALKAAFPDEGVEVVSIHPDGKVEVRVDGTPELREKVEKAVKELLSSAGGSAGGSAGG [r11_418_TrMRF]",
    "folding stability dG unfold, kcal/mol": 0.621
  },
  {
    "sequence input": "SPVLEKIRKLVEELLKKLGIEVKEGETVEIEITLPDGSTIRITFDAKTKKITVEITIDGKKVTLTLEIKPSA [r9_426_TrROS_Hall]",
    "folding stability dG unfold, kcal/mol": 5.68
  },
  {
    "sequence input": "SAGGSAGGSAFTIHDLKLNKVEVHPDGTVTYHLEVTLPSGEKLKVVVLVDPRKPSLATFYFSSAGGSAGGSA [r18_97_TrMRF]",
    "folding stability dG unfold, kcal/mol": 3.31
  },
  {
    "sequence input": "SAGMTLTLELPVPPDMSEEEARALALARVREEVAALSPGGATVTPVAVSVDPETGTVSLEVEVEVPPLASAG [r5_146_JUSTAS]",
    "folding stability dG unfold, kcal/mol": 1.45
  },
  {
    "sequence input": "SAGGLKDILKELGFPIKSVTVQPMPMPNGMPMRTVSITFENPNGPKFEIEVMVMPNGEVMIDIEWVKPSAGG [r13_818_TrROS]",
    "folding stability dG unfold, kcal/mol": 2.69
  },
  {
    "sequence input": "SAGGSAIWIPADEIRELAKEPGLEVEKEPQPDGMLHFTIKNPKNGKRITIVVWDPENGWWHIMPIPSAGGSA [r15_442_TrROS]",
    "folding stability dG unfold, kcal/mol": 0.854
  },
  {
    "sequence input": "SMKLIGVEEFENAKAVLFEKEDKYIKLVFIPEDIPEGEEIYYIKVFEGDEIIEEKAVKPEEIEEAIKEAGSA [r9_57_TrMRF]",
    "folding stability dG unfold, kcal/mol": 0.643
  },
  {
    "sequence input": "SAGMVKAKLKVIPVTVDGKPKLYVKVELEIPGGPKFELVFETGSPEKAKELLEKLGLKVKDEDIEIEESSAG [r5_233_TrMRF]",
    "folding stability dG unfold, kcal/mol": 3.69
  },
  {
    "sequence input": "SAGGSAGGKKEIKIYLVSDLPEEDAIETAEKIKKGLAEELGVSPEELNITVEVAILDPENLELNPESAGGSA [r15_918_TrMRF]",
    "folding stability dG unfold, kcal/mol": 0.0161
  },
  {
    "sequence input": "SAGGSAGGSAMKVALVERPDGSPFLLVFDPDRPGVALLRPLDTDEVEVLPSELLKNLKITASAGGSAGGSAG [r3_451_TrMRF]",
    "folding stability dG unfold, kcal/mol": 0.68
  },
  {
    "sequence input": "SAGGSAPGWYPITYEFEDNNKEIKIEVYYPKEDPMVGVDIEDPDGKVIFTIWFPADNAEKALKEILSAGGSA [r15_940_TrROS]",
    "folding stability dG unfold, kcal/mol": 1.49
  },
  {
    "sequence input": "SAGGSAGGSAGGTKTYTITNEDGSKITIEEVDGKYVITYPNGEKKEIEGMTLEELLKALSAGGSAGGSAGGS [r10_569_TrROS_Hall]",
    "folding stability dG unfold, kcal/mol": 4.26
  }
]
